// values below are reported IC50
# tgt: NF-kB p65 (RelA) (UniProt Q04206 Q04206:1-551)
# Sequence (Q04206 whole entry, one chain of several): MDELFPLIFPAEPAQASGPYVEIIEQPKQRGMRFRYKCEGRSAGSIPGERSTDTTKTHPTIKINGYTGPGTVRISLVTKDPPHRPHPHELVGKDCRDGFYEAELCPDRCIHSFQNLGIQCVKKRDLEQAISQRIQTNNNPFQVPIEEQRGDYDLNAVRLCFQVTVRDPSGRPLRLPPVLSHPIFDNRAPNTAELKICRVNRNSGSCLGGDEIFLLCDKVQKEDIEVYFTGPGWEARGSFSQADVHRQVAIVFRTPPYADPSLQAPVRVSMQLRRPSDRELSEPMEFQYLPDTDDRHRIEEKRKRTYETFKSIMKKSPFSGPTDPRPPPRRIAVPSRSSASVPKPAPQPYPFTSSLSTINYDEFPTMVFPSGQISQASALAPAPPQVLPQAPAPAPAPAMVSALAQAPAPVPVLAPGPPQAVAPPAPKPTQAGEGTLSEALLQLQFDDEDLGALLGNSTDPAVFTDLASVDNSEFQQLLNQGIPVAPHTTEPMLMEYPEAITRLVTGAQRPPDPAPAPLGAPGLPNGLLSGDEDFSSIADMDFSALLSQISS
# test: competition; primary screen 1.31
# assay-conditions: protein: extract; tags: TPA and CI-stimulated Jurkat nuclear extract, Active Motif TransAM kit
quantity-kind: IC50

INSERT INTO measurements (binder, value_reported) VALUES
  ('SODN17 (dsDNA, PS all bonds, both strands) DNA 1: CCCTGGGATTTCCCGCC DNA 2: GGCGGGAAATCCCAGGG', '1.81 nM'),
  ('SODN6 (dsDNA, PS all bonds, both strands) DNA 1: CGAGGGATTTCCCGGC DNA 2: GCCGGGAAATCCCTCG', '2.33 nM');
